Origin of values: PubChem BioAssay

- PROTOCOL NOTES: probe aWnt5a binding to arrayed compounds – biochemical, biotinylated probe, 635/667 nm fluorescence, primary screen (AID 1113);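 further: score merges 667 nm fluorescence intensity with signal-to-noise per printed feature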
- TEST CONDITIONS: small-molecule microarray, higher = more signal
READOUT: composite z-score
Output spec: single numeric token, no unit.

COMPOUND	READOUT	VALUE REPORTED
CCCC=C(CCC)[C@@H](NC(=O)OCC(C)C)c1ccc(C(=O)OC)cc1	composite z-score	-0.217

Entry "CC(C)=C1C(=O)C(c2ccccc2)=C2CN3C(=O)N(CCc4ccccc4)C(=O)[C@]3(C)[C@H]21" has what composite z-score?
0.0825

Entry "C=C(CCCC)/C(=C/C[C@@H](OC(C)=O)c1ccc(CO)o1)c1cnc2ccccc2c1" has what composite z-score?
-0.0704

Entry "CN(C)C(=O)[C@]1(Cc2ccccc2)N=C(c2ccc(OCCCO)cc2)O[C@@H]1c1ccccc1CN=[N+]=[N-]" has what composite z-score?
0.027

Entry "CCOC(=O)C[C@H]1[C@H](OC(=O)Cc2ccc3c(c2)OCO3)[C@@H](NC(=O)Cc2ccc(OC)cc2)c2cc(OCCCO)ccc2N1C(=O)Cc1ccc(OC)cc1" has what composite z-score?
-0.147

Entry "COC(=O)[C@@]1(Cc2ccc(F)cc2)[C@H]2c3cc(C(=O)N4CCCC4)n(Cc4ccccn4)c3C[C@H]2CN1C(=O)c1ccccc1" has what composite z-score?
0.139

Entry C=CCC(OC(C)=O)[C@@H]1[C@@H](N(Cc2ccc(-c3cccc(C(F)(F)F)c3)o2)C(=O)c2ccc(-c3ccccc3)cc2)c2cc(OCCCO)ccc2N1C(=O)c1ccc2ccccc2c1 (some centres not stated) has what composite z-score?
-0.119

---

- Test system: Fibrinogen (Alexa647-labelled)
- PROTOCOL NOTES: Alexa647-fibrinogen binding to printed small molecules – biochemical, small-molecule microarray, 635/667 nm fluorescence, artefact control for SMM control-protein annotation, profiling panel (AID 1131);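 further: z-score merges 667 nm fluorescence with per-spot signal-to-noise over triplicate slides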
- TEST CONDITIONS: fibrinogen-A647 binding fluorescence, higher = more signal
READOUT: composite z-score

COMPOUND	VALUE REPORTED
COc1ccc([Si](C)(C)[C@@H]2[C@@H](CC(=O)N(CCO)Cc3ccccc3)O[C@]3(C(=O)N(Cc4ccc(I)cc4)c4ccccc43)[C@H]2C)cc1	0.391
[N-]=[N+]=Nc1ccccc1C[C@@]1(C(=O)NCC(O)CO)N=C(c2ccc(OCCCO)cc2)O[C@@H]1c1ccccc1 (some centres undefined)	0.54
C=C(COC)/C(=C/C[C@@H](OC(C)=O)c1ccccc1OCCO)c1cnc2ccccc2c1	0.0866
CCCCN1CC=CC23O[C@@H]4/C=C\CCCOC(=O)C4[C@H]2C(=O)N(C(CO)C(C)C)[C@@H]3C1=O (some centres undefined)	-0.458
C=CCN1C(=O)[C@]2(O[C@H](CCn3cc([C@H](O)c4ccccc4)nn3)[C@@H]([Si](C)(C)c3ccc(OC)cc3)[C@@H]2C)c2cc(NC(=O)c3ccc(OC)cc3)ccc21	0.0903
CCOC(=O)c1cn(C[C@H](Cc2ccccc2)NC(=O)N[C@H](CO)CCc2oc(C(C)=O)c(C(=O)OC)c2C(=O)OC)nn1	0.812

Entry "Cc1ccc(S[C@]2(C(=O)NC(C)C)CC(=O)N(C3CCCCC3)[C@@H]2c2ccc(CO)cc2I)cc1" has what composite z-score?
0.703

Entry CN1C(=O)C2C(C1=O)C1C=C(CCCO)C2C(C2CC2)N1Cc1cccc(OC(F)(F)F)c1 (centres undefined) has what composite z-score?
0.0349
